B1: MTMR15 (parent)
chain: YVKAKKSIDKDEEFAGSSPQSSKS

# Variants of: B1
# Protocol: protein stability index of a GFP-peptide fusion (GPS, HEK-293T) (PSI 1-6); higher = more stable;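 also: lentivirally expressed fusions sorted by FACS into six bins by GFP to DsRed ratio, PSI derived from sequencing read proportions per bin multiplied by bin number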
# Assay Setup: c terminus: a fixed tail appended
Quantity Measured: protein stability index
Give bare numbers.

These solved cases illustrate the format of a correct answer.
[
  {
    "Sequence Change": "E13W",
    "protein stability index": 1.94
  },
  {
    "Sequence Change": "Y1M",
    "protein stability index": 5.01
  },
  {
    "Sequence Change": "E12H",
    "protein stability index": 2.71
  },
  {
    "Sequence Change": "V2N",
    "protein stability index": 5.16
  },
  {
    "Sequence Change": "A4R",
    "protein stability index": 3.32
  },
  {
    "Sequence Change": "S18N",
    "protein stability index": 3.9
  }
]

Hello, I would appreciate it if you could give protein stability index for each entry below.
1. D9Q
2. D9S
3. Q20A
4. S24K
5. I8Y

1. 2.76
2. 2.69
3. 2.66
4. 2.58
5. 2.99
